B1: TOR1AIP2 (parent)
chain: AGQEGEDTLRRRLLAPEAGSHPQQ

Variants of: B1
Test: protein stability index of a GFP-peptide fusion (GPS, HEK-293T) (PSI 1-6); higher = more stable;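 note: lentivirally expressed fusions sorted by FACS into six bins by GFP to DsRed ratio, PSI derived from sequencing read proportions per bin multiplied by bin number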
Details: c terminus: a fixed tail appended
MEASURED_ATTRIBUTE: protein stability index
Reply: number alone, nothing else.

Record summary for R10M : reported protein stability index = 4.88

Record summary for Q23K : reported protein stability index = 2.74

Record summary for H21F : reported protein stability index = 2.02

Record summary for G19R : reported protein stability index = 2.49

Record summary for A1T : reported protein stability index = 2.11

Record summary for L13A : reported protein stability index = 3.81

Record summary for S20I : reported protein stability index = 2.08

Record summary for H21W : reported protein stability index = 2.6

Record summary for T8W : reported protein stability index = 1.5

Source listed as the supplement of paper PMC10567573.
